T½ values, listed per item
Target: T1, cynomolgus monkey BCMA (cynomolgus monkey, UniProt A0A2K5UD97 1-53)
T1 construct: Soluble analyte in SPR; construct not described; also called cyBCMA; Cyno BCMA
T1 sequence (A0A2K5UD97 entry or part of it): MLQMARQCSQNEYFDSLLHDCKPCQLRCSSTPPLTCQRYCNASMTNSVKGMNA
Test: SPR, IgG on chip, cyBCMA analyte, 37C

binder: L3.PY/L1.FF/H3.AQ (antibody, V domains shown, IgG) VH: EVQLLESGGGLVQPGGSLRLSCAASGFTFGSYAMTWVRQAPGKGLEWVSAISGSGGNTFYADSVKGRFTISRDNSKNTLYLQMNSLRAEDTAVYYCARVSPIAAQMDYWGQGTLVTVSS VL: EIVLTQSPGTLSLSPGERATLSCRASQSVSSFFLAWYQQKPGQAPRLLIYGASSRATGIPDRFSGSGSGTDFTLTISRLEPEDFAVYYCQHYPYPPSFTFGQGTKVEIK
T½ / min: 3.51

binder: L3.PY/L3.KF/H3.YA (antibody, V domains shown, IgG) VH: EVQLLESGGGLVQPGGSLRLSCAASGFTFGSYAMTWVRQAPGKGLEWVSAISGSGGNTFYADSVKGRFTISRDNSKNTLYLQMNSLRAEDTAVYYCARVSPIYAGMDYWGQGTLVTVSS VL: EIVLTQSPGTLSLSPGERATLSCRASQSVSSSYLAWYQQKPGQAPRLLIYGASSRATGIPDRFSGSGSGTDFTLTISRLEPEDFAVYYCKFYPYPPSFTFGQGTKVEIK
T½ / min: 1.45

binder: L3.PY/L1.FF/H3.TAQ (antibody, V domains shown, IgG) VH: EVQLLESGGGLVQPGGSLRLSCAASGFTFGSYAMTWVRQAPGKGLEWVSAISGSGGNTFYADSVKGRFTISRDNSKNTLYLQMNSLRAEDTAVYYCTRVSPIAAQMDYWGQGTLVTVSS VL: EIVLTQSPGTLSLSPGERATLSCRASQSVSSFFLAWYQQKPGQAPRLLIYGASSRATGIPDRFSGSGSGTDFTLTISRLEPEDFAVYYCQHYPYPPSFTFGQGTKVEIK
T½ / min: 3.07

binder: L3.PY/L3.KF/H3.AQ (antibody, V domains shown, IgG) VH: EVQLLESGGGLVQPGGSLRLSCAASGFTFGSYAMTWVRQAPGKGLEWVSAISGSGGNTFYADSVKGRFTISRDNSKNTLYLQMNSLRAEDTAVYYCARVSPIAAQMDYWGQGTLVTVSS VL: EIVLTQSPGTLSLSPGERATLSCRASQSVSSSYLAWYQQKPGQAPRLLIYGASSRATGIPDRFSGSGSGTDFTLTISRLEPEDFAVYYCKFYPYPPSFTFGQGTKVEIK
T½ / min: 4.85

binder: L3.PY/L1.PH/H3.TAQ (antibody, V domains shown, IgG) VH: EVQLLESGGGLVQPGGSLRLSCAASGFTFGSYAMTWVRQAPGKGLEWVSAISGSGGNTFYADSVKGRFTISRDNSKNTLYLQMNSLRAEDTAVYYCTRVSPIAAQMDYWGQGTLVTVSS VL: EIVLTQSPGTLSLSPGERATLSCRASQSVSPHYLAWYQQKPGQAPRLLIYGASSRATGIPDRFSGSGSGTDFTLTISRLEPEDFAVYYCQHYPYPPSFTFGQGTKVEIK
T½ / min: 3.61
